Below: a set of entries, each annotated with reported cell viability.
System: HFF
TEST_NAME: cell viability relative to DMSO control; higher = less cytotoxic
CONDITION_DETAILS: 1 µM; 72 h
PROPERTY_LABEL: cell viability (%)

compound=O=C(NCc1ccccc1Cl)c1cnc2ccccc2n1 reading_unit=% val=71.4
compound="O=C(Nc1ccc(-c2ccccc2)cc1)C1=C(O)C(Cc2ccccc2)OC1=O (stereo not drawn)" reading_unit=% val=69.3
compound=Cc1onc(-c2ccccc2Cl)c1C(=O)N[C@@H]1C(=O)N2[C@@H]1SC(C)(C)[C@@H]2C(=O)O reading_unit=% val=69
compound=CCCNc1ccc(S(=O)(=O)Nc2cc(C)on2)cc1 reading_unit=% val=69.3
compound=CC1=C(/C=C/C(C)=C/C=C/C(C)=C/C(=O)Nc2ccc(O)cc2)C(C)(C)CCC1 reading_unit=% val=70.8
compound=Cc1cc(O)c2c(c1)C(=O)c1c(I)c(O)c(I)c(O)c1C2=O reading_unit=% val=71.9
compound=CCc1cc(CCC(=O)Nc2ccccc2O)c(O)nc1C reading_unit=% val=71.2
compound=COCCn1cnc2c(O)nc(Nc3ccccc3)nc21 reading_unit=% val=61
compound=CN(C)c1[nH]c(=O)ncc1F reading_unit=% val=72
compound=NC(=S)N/N=C/c1ncccc1N reading_unit=% val=65.3
compound=O=C(NCc1ncc(C(F)(F)F)cc1Cl)c1c(Cl)cccc1Cl reading_unit=% val=74.8
compound=CCCCSc1nc(N)c2[nH]c(=O)c(=O)n(Cc3ccccc3)c2n1 reading_unit=% val=67.5
compound=Cc1nc(N(C)C(=O)Cc2ccc(-c3ccccn3)cc2)sc1S(N)(=O)=O reading_unit=% val=66.3
